Biological target: APOL1 G1 Protein (Homo sapiens, UniProt O14791, I384M/S342G)
Sequence (O14791 28-398 S342G/I384M): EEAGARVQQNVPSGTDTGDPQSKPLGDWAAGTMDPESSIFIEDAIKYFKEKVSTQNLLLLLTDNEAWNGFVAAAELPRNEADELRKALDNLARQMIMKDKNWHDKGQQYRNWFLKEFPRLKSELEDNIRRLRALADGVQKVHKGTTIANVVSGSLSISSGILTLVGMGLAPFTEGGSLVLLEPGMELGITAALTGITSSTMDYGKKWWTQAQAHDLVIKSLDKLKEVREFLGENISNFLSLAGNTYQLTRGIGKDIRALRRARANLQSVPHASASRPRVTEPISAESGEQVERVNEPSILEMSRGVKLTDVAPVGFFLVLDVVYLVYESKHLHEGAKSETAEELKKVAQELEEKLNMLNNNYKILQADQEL
Test: Trypanosoma brucei brucei lysis assay using APOL1 recombinant protein (AlamarBlue viability)
Assay type: cell-based
Conditions: Trypanosoma brucei brucei lysis, recombinant APOL1, AlamarBlue; read-out: Trypanosoma Assay (IC50)
Text: Trypanosoma brucei brucei is a blood stream parasite to which human, gorillas and baboon are immune due to the presence of the APOL1 protein in their HDL particles. […] Briefly, the AlamarBlue active compound, the resazurin, a blue, water soluble, non-toxic and cell permeable molecule, which can be followed by absorbance, is reduced by various metabolic pathways into resorufin, a red compound which can be followed by either absorbance or fluorescence. […]
pIC50: −log10 of the molar value.
Property measured: pIC50

Please review the entries below; each comes with its answer.
{"Compound": "O=C(NCc1nnco1)[C@H]1C[C@H](c2c(-c3ccc(F)cc3)[nH]c3c(F)cc(F)cc32)C1", "Tested on": "APOL1 G1 Protein (Homo sapiens, UniProt O14791, I384M/S342G)", "pIC50": "> 6.60"}
{"Compound": "O=C(NCCO)[C@H]1C[C@H](c2c(-c3ccc(F)cc3)[nH]c3c(F)cc(F)cc32)C1", "Tested on": "APOL1 G1 Protein (Homo sapiens, UniProt O14791, I384M/S342G)", "pIC50": "> 6.60"}

Request: Look up pIC50 for this compound: O=C([C@H]1C[C@H](c2c(-c3ccc(F)cc3)[nH]c3c(F)cc(F)cc32)C1)N1CC[C@H](CO)[C@H](O)C1
Response: < 6.00

Request: Same question, O=C1CCC(NC(=O)[C@H]2C[C@H](c3c(-c4ccc(F)cc4)[nH]c4c(F)cc(F)cc43)C2)C(=O)N1 (stereo partly shown) this time
Response: 6.00 to 6.60

----------
# IC50 values compiled below
target: G1 APOL1 (Homo sapiens, UniProt O14791, I384M/S342G); construct: expressed in transfected cells; experiment: Acute APOL1 Thallium Assay with inducible stable clones of HEK 293 cells; type: cell-based; conditions: HEK 293 T-Rex cells expressing G1 APOL1; read-out: Thallium Assay (IC50)

{"Compound": "O=C(CNC(=O)[C@H]1C[C@H](c2c(-c3ccc(F)cc3)[nH]c3c(F)cc(F)cc32)C1)NC[C@@H](O)C(F)(F)F [Compound 233]", "IC50": "> 1000 nM"}
{"Compound": "O=C(NCC1(CO)COC1)[C@H]1C[C@H](c2c(-c3ccc(F)cc3)[nH]c3c(F)cc(F)cc32)C1 [Compound 83]", "IC50": "> 1000 nM"}
{"Compound": "O=C([C@H]1C[C@H](c2c(-c3ccc(F)cc3)[nH]c3c(F)cc(F)cc32)C1)N(CCO)C1CC1 [Compound 52]", "IC50": "250 to 1000 nM"}
{"Compound": "CC(CO)(CO)NC(=O)[C@H]1C[C@H](c2c(-c3ccc(F)cc3)[nH]c3c(F)cc(F)cc32)C1 [Compound 186]", "IC50": "< 250 nM"}
{"Compound": "O=C([C@H]1C[C@H](c2c(-c3ccc(F)cc3)[nH]c3c(F)cc(F)cc32)C1)N1CC[C@@H]1CO [Compound 195]", "IC50": "< 250 nM"}
{"Compound": "O=C1NCC[C@@H]1NC(=O)[C@H]1C[C@H](c2c(-c3ccc(F)cc3)[nH]c3c(F)cc(F)cc32)C1 [Compound 162]", "IC50": "250 to 1000 nM"}

Request: Field request: IC50 | item: O=C(N[C@@H]1CC[C@H](O)C1)[C@H]1C[C@H](c2c(-c3ccc(F)cc3)[nH]c3c(F)cc(F)cc32)C1 [Compound 180]
Response: > 1000 nM

The measured values listed here are drawn from patent US12116343B2.
